Source of measurements: patent US20120178738A1

Biological target: human 5HT1A receptors (Homo sapiens, UniProt P08908)
Sequence (P08908 1-422): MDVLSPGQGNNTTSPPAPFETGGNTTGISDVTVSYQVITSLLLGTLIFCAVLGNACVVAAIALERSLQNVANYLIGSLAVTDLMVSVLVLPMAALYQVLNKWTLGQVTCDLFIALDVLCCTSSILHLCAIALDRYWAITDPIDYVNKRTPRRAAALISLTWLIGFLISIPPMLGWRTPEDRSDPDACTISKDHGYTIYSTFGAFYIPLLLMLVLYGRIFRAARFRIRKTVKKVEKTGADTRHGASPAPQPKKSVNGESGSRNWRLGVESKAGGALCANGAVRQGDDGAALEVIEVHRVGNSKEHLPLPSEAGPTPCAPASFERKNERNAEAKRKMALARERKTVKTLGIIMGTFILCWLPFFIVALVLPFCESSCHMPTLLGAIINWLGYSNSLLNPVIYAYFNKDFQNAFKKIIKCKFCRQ
pKi: −log10 of the molar value.
REPORTED ENDPOINT: pKi

CCC(C)OC(=O)C[C@H]1CN(C2=Nc3cc(Cl)ccc3Oc3ccccc32)CCN1C (stereo partly drawn) [DY] : 5.01 to 6.00

Task: pKi for O=C(C[C@H]1CN(C2=Nc3cc(Cl)ccc3Oc3ccccc32)CCN1)NCCCO [Compound FS] ?
Result: 7.01 to 8.00

Task: What value of pKi has been reported for the following compound? COC(=O)C[C@H]1CN(C2=Nc3cc(Cl)ccc3Oc3ccccc32)CCN1 [Compound N]
Result: 6.01 to 7.00

Task: Which pKi is reported for this compound? O=C(C[C@H]1CN(C2=Nc3cc(Cl)ccc3Oc3ccccc32)CCN1)O[C@@H]1CN2CCC1CC2 [DU]
Result: 7.01 to 8.00

###

Each entry below lists one item and its recorded Kb value.
target: 5-HT2A receptor (Rattus norvegicus, UniProt P14842); construct: Eight strips of tissue (0.5 cm long) were cut. and were mounted in 10 ml organ baths; tissue Charles River Laboratories; host or cells: rat aorta strips, endothelium removed; test: cell-based; conditions: read-out: 5HT2A (pKb) (converted)
Sequence (P14842 whole entry): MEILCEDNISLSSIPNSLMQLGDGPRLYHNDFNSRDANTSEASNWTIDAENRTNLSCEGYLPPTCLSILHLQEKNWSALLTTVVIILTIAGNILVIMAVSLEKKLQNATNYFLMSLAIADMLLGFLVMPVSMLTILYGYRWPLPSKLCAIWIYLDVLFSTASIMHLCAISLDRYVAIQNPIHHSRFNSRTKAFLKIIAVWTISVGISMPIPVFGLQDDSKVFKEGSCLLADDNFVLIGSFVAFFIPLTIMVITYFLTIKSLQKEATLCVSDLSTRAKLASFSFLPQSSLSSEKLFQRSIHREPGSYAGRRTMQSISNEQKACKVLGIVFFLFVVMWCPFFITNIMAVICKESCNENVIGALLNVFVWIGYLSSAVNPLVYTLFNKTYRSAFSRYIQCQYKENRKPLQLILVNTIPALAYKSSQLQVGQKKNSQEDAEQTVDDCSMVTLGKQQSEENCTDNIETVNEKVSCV

The cases that follow already have their Kb on record.
CN1CCN(C2=Nc3cc(Cl)ccc3Oc3ccccc32)C[C@@H]1CC(=O)NC(CF)CF : 31.6 to 97.7 nM
O=C(C[C@H]1CN(C2=Nc3cc(Cl)ccc3Oc3ccccc32)CCN1)N1CCC[C@H]1C(F)(F)F : 31.6 to 97.7 nM
O=C(C[C@H]1CN(C2=Nc3cc(Cl)ccc3Oc3ccccc32)CCN1)OC1CCCC1 : 10 to 30.9 nM

Task: Item: O=C(C[C@H]1CN(C2=Nc3cc(Cl)ccc3Oc3ccccc32)CCN1)OC1CCOCC1 Test system: 5-HT2A receptor (Rattus norvegicus, UniProt P14842) Read-out: Kb Value: ?
Result: 3.16 to 9.77 nM

###

target: human D2L dopamine receptors (Homo sapiens, UniProt P14416); construct: expressed in transfected cells; host or cells: insect Sf9 cells (membranes); experiment: hD2L receptor radioligand binding ([3H]spiperone); conditions: pKi reported on a scale of 1 through 5; read-out: D2L (pKi) (converted)
Sequence (P14416 whole entry): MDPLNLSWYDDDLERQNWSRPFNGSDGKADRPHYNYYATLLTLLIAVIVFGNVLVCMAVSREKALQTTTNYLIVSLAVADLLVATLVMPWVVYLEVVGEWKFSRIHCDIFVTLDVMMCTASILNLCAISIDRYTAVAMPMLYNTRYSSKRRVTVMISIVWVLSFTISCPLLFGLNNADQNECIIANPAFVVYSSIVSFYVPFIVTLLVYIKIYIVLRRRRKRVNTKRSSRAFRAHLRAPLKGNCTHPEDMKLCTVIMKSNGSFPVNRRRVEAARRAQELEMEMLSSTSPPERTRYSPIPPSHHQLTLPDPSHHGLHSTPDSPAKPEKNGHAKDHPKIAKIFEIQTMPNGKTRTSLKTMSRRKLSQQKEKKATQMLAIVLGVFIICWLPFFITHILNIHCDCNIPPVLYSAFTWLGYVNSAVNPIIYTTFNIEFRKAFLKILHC
Entries annotated with measured Ki

CCOC(=O)C[C@@H]1CN(C2=Nc3cc(Cl)ccc3Oc3ccccc32)CCN1 : 2510 to 9770 nM
O=C(C[C@H]1CN(C2=Nc3cc(Cl)ccc3Oc3ccccc32)CCN1)NCCO : 631 to 2450 nM
COC(=O)CC1CN(C2=Nc3cc(Cl)ccc3Oc3ccccc32)CCN1 (stereo not drawn) : 2510 to 9770 nM
O=C(O)C[C@@H]1CN(C2=Nc3cc(Cl)ccc3Oc3ccccc32)CCN1 : > 10000 nM

Task: Look up Ki for this molecule: O=C(C[C@H]1CN(C2=Nc3cc(Cl)ccc3Oc3ccccc32)CCN1)N1CCOCC1
Result: 2510 to 9770 nM

Task: Fill in the blank: the reported Ki of COc1ccc(NC(=O)C[C@H]2CN(C3=Nc4cc(Cl)ccc4Oc4ccccc43)CCN2)cn1 is ____.
Result: 631 to 2450 nM

Task: Tell me the measured Ki of O=C(C[C@H]1CN(C2=Nc3cc(Cl)ccc3Oc3ccccc32)CCN1)NC[C@@H]1CCCO1 , please.
Result: 158 to 617 nM

Task: Data request, read-out Ki, for CCCN(CCO)C(=O)C[C@H]1CN(C2=Nc3cc(Cl)ccc3Oc3ccccc32)CCN1
Result: 2510 to 9770 nM

Task: Which Ki is listed for COC(=O)C[C@H]1CN(C2=Nc3cc(Cl)ccc3Oc3ccccc32)CCN1C ?
Result: 2510 to 9770 nM

###

Measured pKi, listed per entry for reference.
Target: human 5HT2C receptors (Homo sapiens, UniProt P28335)
Sequence (P28335 33-458): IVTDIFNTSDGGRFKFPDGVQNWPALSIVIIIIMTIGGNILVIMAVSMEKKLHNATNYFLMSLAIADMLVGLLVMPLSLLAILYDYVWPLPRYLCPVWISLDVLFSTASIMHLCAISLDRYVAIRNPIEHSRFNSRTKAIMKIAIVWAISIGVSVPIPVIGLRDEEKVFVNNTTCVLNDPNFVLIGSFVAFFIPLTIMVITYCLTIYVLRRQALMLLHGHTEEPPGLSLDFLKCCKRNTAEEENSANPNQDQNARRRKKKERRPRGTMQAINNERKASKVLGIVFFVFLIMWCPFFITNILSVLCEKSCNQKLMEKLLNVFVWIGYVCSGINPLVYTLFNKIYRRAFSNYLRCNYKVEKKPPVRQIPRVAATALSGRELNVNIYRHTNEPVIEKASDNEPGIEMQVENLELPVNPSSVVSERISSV
pKi: −log10 of the molar value.

Task: Fill in: pKi of CC(C)OC(=O)CC1CN(C2=Nc3ccc(F)cc3Oc3ccccc32)CCN1 (stereo not drawn) [M] is ___
Result: 6.01 to 7.00

Task: Bench note: what pKi did CN(CCO)C(=O)C[C@H]1CN(C2=Nc3cc(Cl)ccc3Oc3ccccc32)CCN1 [FO] show?
Result: 7.01 to 8.00

###

Entries and their Ki values follow.
target: human H1 receptors (Homo sapiens, UniProt P35367)
Sequence (P35367 whole entry): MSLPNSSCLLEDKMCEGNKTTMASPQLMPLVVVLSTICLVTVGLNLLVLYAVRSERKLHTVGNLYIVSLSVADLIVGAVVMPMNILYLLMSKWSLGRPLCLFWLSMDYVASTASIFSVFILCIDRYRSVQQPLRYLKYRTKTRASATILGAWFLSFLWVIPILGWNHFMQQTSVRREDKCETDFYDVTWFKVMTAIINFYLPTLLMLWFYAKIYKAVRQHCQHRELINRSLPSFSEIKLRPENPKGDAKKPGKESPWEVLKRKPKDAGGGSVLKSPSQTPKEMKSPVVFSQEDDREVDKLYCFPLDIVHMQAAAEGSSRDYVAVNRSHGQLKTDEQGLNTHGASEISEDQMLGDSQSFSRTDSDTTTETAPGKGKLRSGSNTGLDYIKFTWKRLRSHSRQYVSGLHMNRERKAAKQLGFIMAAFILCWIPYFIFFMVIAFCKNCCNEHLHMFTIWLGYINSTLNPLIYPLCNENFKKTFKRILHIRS

O=C(C[C@H]1CN(C2=Nc3cc(Cl)ccc3Oc3ccccc32)CCN1)N1CCOCC1 : ≤ 9.77 nM
CC(C)(C)COC(=O)C[C@H]1CN(C2=Nc3cc(Cl)ccc3Oc3ccccc32)CCN1 : 100 to 977 nM
COCCNC(=O)C[C@H]1CN(C2=Nc3cc(Cl)ccc3Oc3ccccc32)CCN1 : 10 to 97.7 nM
CCOC(=O)c1ccc(CCC2CN(C3=Nc4cc(Cl)ccc4Oc4ccccc43)CCN2)cc1 (stereo not drawn) : 1000 to 9770 nM
O=C(C[C@H]1CN(C2=Nc3cc(Cl)ccc3Oc3ccccc32)CCN1)NCCO : 10 to 97.7 nM
COC(=O)c1ccc(OC[C@H]2CN(C3=Nc4ccccc4Oc4ccc(Cl)cc43)CCN2)cc1 : 100 to 977 nM
CN1CCN(C2=Nc3cc(Cl)ccc3Oc3ccccc32)C[C@@H]1CC(=O)NC(CF)CF : 10 to 97.7 nM
COC(=O)c1ccc(OCC2CN(C3=Nc4cc(Cl)ccc4Oc4ccccc43)CCN2)cc1 (stereo not drawn) : 1000 to 9770 nM

Next, consider the following molecule.
Task: Look up Ki for this molecule: CN(CCO)C(=O)C[C@H]1CN(C2=Nc3cc(Cl)ccc3Oc3ccccc32)CCN1
Result: 10 to 97.7 nM

###

assay: Metabolism in pooled human liver microsomes; type: in vitro ADME; details: pH 7.4; pooled human liver microsomes, disappearance of parent; read-out: HLMs t1/2
REPORTED ENDPOINT: log10 half-life (log10 of the value in min)
Lab note - half-life converted to log10 from values in min.

CC(C)OC(=O)CC1CN(C2=Nc3cc(Cl)ccc3Oc3ccccc32)CCN1 (stereo not shown) [L] : 1.48

Task: May I ask what log10 half-life has been recorded for CCOC(=O)CC1CN(C2=Nc3ccc(F)cc3Oc3ccccc32)CCN1 (stereo not shown) [J] ?
Result: 1.00

###

# key: entry, value: Ki
biological target: human D2s dopamine receptors (Homo sapiens, UniProt P14416)
Sequence (P14416 1-414 isoform P14416-2): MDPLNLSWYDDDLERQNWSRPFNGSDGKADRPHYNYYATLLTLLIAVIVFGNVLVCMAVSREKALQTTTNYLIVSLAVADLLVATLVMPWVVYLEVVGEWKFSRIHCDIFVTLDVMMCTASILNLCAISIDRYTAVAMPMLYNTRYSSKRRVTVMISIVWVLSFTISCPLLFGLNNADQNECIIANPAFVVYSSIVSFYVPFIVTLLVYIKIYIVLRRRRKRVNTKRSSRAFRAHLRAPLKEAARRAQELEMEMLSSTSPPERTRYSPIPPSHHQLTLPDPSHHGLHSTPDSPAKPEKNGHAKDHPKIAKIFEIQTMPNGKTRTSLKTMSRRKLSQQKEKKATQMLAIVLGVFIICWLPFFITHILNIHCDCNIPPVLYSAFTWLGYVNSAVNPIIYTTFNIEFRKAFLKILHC

These recorded examples may help you get a feel for the data.
CC(C)CNC(=O)CC1CN(C2=Nc3cc(Cl)ccc3Oc3ccccc32)CCN1 (centres unmarked) [B] : 158 to 617 nM
CN1CCN(C2=Nc3cc(Cl)ccc3Oc3ccccc32)C[C@@H]1CC(=O)OCCCF [EX] : 2510 to 9770 nM
CCOC(=O)C[C@H]1CN(C2=Nc3cc(Cl)ccc3Oc3ccccc32)CCN1CCC(C)C [ER] : 2510 to 9770 nM
CCOC(=O)CC1CN(C2=Nc3ccc(Cl)cc3Oc3ccccc32)CCN1 (centres unmarked) [H] : 631 to 2450 nM
CN1CC[C@@H](OC(=O)C[C@H]2CN(C3=Nc4cc(Cl)ccc4Oc4ccccc43)CCN2C)C1 [ES] : > 10000 nM
CN1CCN(C2=Nc3cc(Cl)ccc3Oc3ccccc32)C[C@@H]1CC(=O)NC(CF)CF [EV] : 2510 to 9770 nM

Task: Dear colleague, I am looking for the recorded Ki of the following molecule: O=C(C[C@H]1CN(C2=Nc3cc(Cl)ccc3Oc3ccccc32)CCN1)O[C@H]1CN2CCC1CC2 [DT]
Result: > 10000 nM

Task: Which value of Ki has been reported for CN1CCN(C2=Nc3cc(Cl)ccc3Oc3ccccc32)C[C@@H]1CC(=O)N(CC(F)(F)F)CC(F)(F)F [EW] in the records?
Result: > 10000 nM

Task: Entry under review: O=C(O)C[C@H]1CN(C2=Nc3cc(Cl)ccc3Oc3ccccc32)CCN1 [Compound Q] . Reported Ki?
Result: > 10000 nM

Task: Fill in the blank: the reported Ki of O=C(C[C@H]1CN(C2=Nc3cc(Cl)ccc3Oc3ccccc32)CCN1)N1CC[C@@H](O)C1 [GE] is ____.
Result: 2510 to 9770 nM

Task: Request the reported Ki associated with COCCCNC(=O)C[C@H]1CN(C2=Nc3cc(Cl)ccc3Oc3ccccc32)CCN1 [GD]
Result: 631 to 2450 nM

Task: So what's the measured Ki for this one? CCOC(=O)c1ccc(CCC2CN(C3=Nc4cc(Cl)ccc4Oc4ccccc43)CCN2)cc1 (centres unmarked) [Compound F]
Result: 631 to 2450 nM

Task: Fill blank: measured Ki of the molecule O=C(C[C@H]1CN(C2=Nc3cc(Cl)ccc3Oc3ccccc32)CCN1)O[C@H]1CCOC1 [EQ] is ____.
Result: 631 to 2450 nM

Task: Consider the molecule O=C(C[C@H]1CN(C2=Nc3cc(Cl)ccc3Oc3ccccc32)CCN1)NCC(O)C(F)(F)F (some centres unmarked) [GF] and give its measured Ki.
Result: 631 to 2450 nM

Task: Give the measured Ki of CN1CCN(C2=Nc3cc(Cl)ccc3Oc3ccccc32)C[C@@H]1CC(=O)OC1CCCC1 [DX] .
Result: 2510 to 9770 nM

Task: Give its Ki value. Item: O=C(O)CC1CN(C2=Nc3cc(Cl)ccc3Oc3ccccc32)CCN1 (centres unmarked) [Compound E]
Result: > 10000 nM

Task: Could you share which Ki value was measured for CN1CCN(C2=Nc3cc(Cl)ccc3Oc3ccccc32)C[C@@H]1CC(=O)O[C@@H]1CN2CCC1CC2 [DS] ?
Result: > 10000 nM

Task: Please look up its Ki: CC(C)OC(=O)CC1CN(C2=Nc3ccc(F)cc3Oc3ccccc32)CCN1 (centres unmarked) [M]
Result: > 10000 nM

Task: # Ki lookup, item CCCN(CCO)C(=O)C[C@H]1CN(C2=Nc3cc(Cl)ccc3Oc3ccccc32)CCN1 [EZ]
Result: 2510 to 9770 nM

Task: What value of Ki has been recorded for this entry: CN1CCN(C2=Nc3cc(Cl)ccc3Oc3ccccc32)C[C@@H]1CC(=O)OC1CCOCC1 [DZ]
Result: 2510 to 9770 nM

Task: Query (molecule): O=C(C[C@H]1CN(C2=Nc3cc(Cl)ccc3Oc3ccccc32)CCN1)NCCCO [Compound FS] ; field requested: Ki
Result: 631 to 2450 nM

Task: Please report the recorded Ki for O=C(C[C@H]1CN(C2=Nc3cc(Cl)ccc3Oc3ccccc32)CCN1)NCC(F)F [FQ] .
Result: 631 to 2450 nM

Task: Entry COC(=O)C[C@H]1CN(C2=Nc3cc(Cl)ccc3Oc3ccccc32)CCN1 [Compound N] : reported Ki = ?
Result: 631 to 2450 nM

Task: Name the reported Ki value associated with the molecule COC(=O)CC1CN(C2=Nc3cc(C(F)(F)F)ccc3Oc3ccccc32)CCN1 (centres unmarked) [DQ]
Result: 2510 to 9770 nM
